Collected IC50 values appear next to each entry.
- TESTED_ON: APJ (Homo sapiens, UniProt P35414)
- Construct: expressed in transfected cells; host or cells: CHO (CHO-A10; clone 6 for the cAMP assay)
- Sequence (P35414 1-380): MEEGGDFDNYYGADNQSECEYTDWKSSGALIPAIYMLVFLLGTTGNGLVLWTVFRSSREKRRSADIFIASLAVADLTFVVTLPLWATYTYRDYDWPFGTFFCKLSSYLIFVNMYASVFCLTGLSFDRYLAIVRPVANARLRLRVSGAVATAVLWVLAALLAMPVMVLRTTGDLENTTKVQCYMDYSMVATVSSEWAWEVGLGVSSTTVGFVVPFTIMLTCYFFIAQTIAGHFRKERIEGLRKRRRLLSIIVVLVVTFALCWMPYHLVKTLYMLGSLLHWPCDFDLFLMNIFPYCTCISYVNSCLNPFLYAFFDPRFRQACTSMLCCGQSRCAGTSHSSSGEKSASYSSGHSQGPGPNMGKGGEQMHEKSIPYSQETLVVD
- TEST_SUMMARY: Receptor binding assay-2 (compound in Reference Example 2 used)
- PARTICULARS: compound in Reference Example 2 used as ligand; read-out: IC50
Non-standard residues stand in square brackets, D forms with d. Residues, ends and D or L forms follow the SMILES beside them. Phe(4-Cl) = N[C@@H](Cc1ccc(Cl)cc1)C(=O)O; Cha = N[C@@H](CC1CCCCC1)C(=O)O; NMeA = CN[C@@H](C)C(=O)O

Known results for molecules:
>  <MOLECULE>
CC(C)C[C@H](NC(=O)[C@H](CCCNC(=N)N)NC(=O)[C@@H]1CCCN1C(=O)[C@H](CCCNC(=N)N)NC(=O)[C@H](CCC(N)=O)NC(=O)[C@H](CCCNC(=N)N)NC(=O)[C@@H](N)CCCNC(=N)N)C(=O)N[C@@H](CO)C(=O)N[C@@H](C)C(=O)N[C@@H](CCCNC(=N)N)C(=O)NCC(=O)NCC(=O)N[C@@H](CC1CCCCC1)C(=O)O [Compound in Ex. 62] (H-RRQRPRLSARGG[Cha]-OH; N-terminus and C-terminus assumed)

>  <MEASUREMENT_KIND>
IC50

>  <MEASURED_RESULT>
0.14 nM

$$$$
>  <MOLECULE>
CC(C)C[C@H](NC(=O)[C@H](CCCNC(=N)N)NC(=O)[C@@H]1CCCN1C(=O)[C@@H](N)CCCNC(=N)N)C(=O)N[C@@H](CO)C(=O)N[C@@H](C)C(=O)N[C@@H](CCCNC(=N)N)C(=O)NCC(=O)N1CCC[C@H]1C(=O)N[C@@H](CC1CCCCC1)C(=O)N1CCC[C@H]1C(=O)N[C@@H](Cc1ccc(Cl)cc1)C(=O)O [Compound in Ex. 5] (H-RPRLSARGP[Cha]P[Phe(4-Cl)]-OH)

>  <MEASUREMENT_KIND>
IC50

>  <MEASURED_RESULT>
0.13 nM

$$$$
>  <MOLECULE>
CSCC[C@H](NC(=O)[C@H](C)N(C)C(=O)CNC(=O)[C@H](CCCNC(=N)N)NC(=O)[C@H](C)NC(=O)[C@H](CO)NC(=O)[C@H](CC(C)C)NC(=O)[C@H](CCCNC(=N)N)NC(=O)[C@@H]1CCCN1C(=O)[C@@H](N)CCCNC(=N)N)C(=O)N1CCC[C@H]1C(=O)N[C@@H](Cc1ccc(Cl)cc1)C(=O)O [Compound in Ex. 55] (H-RPRLSARG[NMeA]MP[Phe(4-Cl)]-OH; N-terminus and C-terminus assumed)

>  <MEASUREMENT_KIND>
IC50

>  <MEASURED_RESULT>
0.09 nM

$$$$
>  <MOLECULE>
CC(C)C[C@H](NC(=O)[C@H](CCCNC(=N)N)NC(=O)[C@@H]1CCCN1C(=O)[C@@H](N)CCCNC(=N)N)C(=O)N[C@@H](CO)C(=O)N[C@@H](Cc1c[nH]cn1)C(=O)N[C@@H](C)C(=O)NCC(=O)N1CCC[C@H]1C(=O)N[C@@H](CC1CCCCC1)C(=O)N1CCC[C@H]1C(=O)N[C@@H](Cc1ccc(Cl)cc1)C(=O)O [Compound in Ex. 56] (H-RPRLSHAGP[Cha]P[Phe(4-Cl)]-OH; N-terminus and C-terminus assumed)

>  <MEASUREMENT_KIND>
IC50

>  <MEASURED_RESULT>
0.22 nM

$$$$

# context switch: different molecule, same IC50
What IC50 value was documented for this molecule, CC(C)C[C@H](NC(=O)[C@H](CCCNC(=N)N)NC(=O)[C@@H]1CCCN1C(=O)[C@H](CCCNC(=N)N)NC(=O)[C@H](CCC(N)=O)NC(=O)[C@H](CCCNC(=N)N)NC(=O)[C@@H](N)CCCNC(=N)N)C(=O)N[C@@H](CO)C(=O)N[C@@H](C)C(=O)N[C@@H](CCCNC(=N)N)C(=O)NCC(=O)N(C)C [Compound in Ex. 51] (H-RRQRPRLSARG-NMe2) ? 0.16 nM
